# Measured Target: Peptide 5: Biotin-…-[Tyr(PC)]-acid
# Sequence (peptide, as listed by the source): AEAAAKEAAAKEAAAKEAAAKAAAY
# Procedure Text: scFv ELISA
Can you tell me OD450 for the items I'm about to list?
Value expressed in OD450; do not type the unit.

Problem: Look at this binder and give its reported OD450. PcOxP_DB03_A10 (scFv, V domains shown, scFv in periplasmic extract) VH: EVQLLESGGGLVQPGGSLRLSCAASGWTFSDFYMEWVRQAPGKGLEWVAASRNKANDYTTEYADSVKGRFTISRDNSKNTLYLQMNSLRAEDTAVYYCARDYYGSSYWYFDVWGQGTLVTVSS VL: DIVMTQSPDSLAVSLGERATINCTASESLYSSKHKVHYLAWYQQKPGQPPKLLIYGASQRYIGVPDRFSGSGSGTDFTLTISSLQAEDVAVYYCAQFYLYPLTFGGGTKVEIK
Solution: 0.54

Problem: Further, for PcOxP_DB04_B06 (scFv, V domains shown, scFv in periplasmic extract) VH: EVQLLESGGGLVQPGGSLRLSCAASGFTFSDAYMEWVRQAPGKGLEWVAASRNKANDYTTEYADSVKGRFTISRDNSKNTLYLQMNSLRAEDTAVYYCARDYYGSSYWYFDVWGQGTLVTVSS VL: DIQMTQSPSSLSASVGDRVTITCTASESLYSSKHKVHYLAWYQQKPGKAPKLLIYGASNRYIGVPSRFSGSGSGTDFTLTISSLQPEDFATYYCAQFYDYPLTFGGGTKVEIK ?
Solution: 1.06

Where do these numbers come from? They come from patent US20250320312A1.
